# System: NCI-H460 lung
# Run description: NCI-60 one-dose screen, 48 h (100 = growth as untreated, 0 = no growth, -100 = all killed)
# Particulars: 10 µM unless noted
About 83,000 compounds went through this panel and 20% of them were active in at least one assay; those are over-represented in the sample as a whole. Active and inactive are the calls of the source. Rule for the calls: active = growth percent below 10; inactive = the rest.
Assay readout: growth

Recorded growth for NC(=S)N/N=C/c1ccc(Cl)cc1 on NCI-H460 lung was 106% (inactive)

Recorded growth for CCOC(=O)Nc1nccs1 on NCI-H460 lung was 104% (inactive)

Recorded growth for COC1OC(C(COC(C)=O)OC(C)=O)C(OC(C)=O)C(OC(C)=O)C1OC(C)=O (centres undefined) on NCI-H460 lung was 112% (inactive)

Recorded growth for O=C(O)c1cc(I)ccc1O on NCI-H460 lung was 108% (inactive)

Recorded growth for CC(=O)c1cc(O)ccc1O on NCI-H460 lung was 108% (inactive)

Recorded growth for Clc1ncnc2nc[nH]c12 on NCI-H460 lung was 103% (inactive)

Recorded growth for CC(=O)N(C(C)=O)c1ccc(C)cc1 on NCI-H460 lung was 107% (inactive)

Recorded growth for CNc1ccccc1C(N)=O on NCI-H460 lung was 108% (inactive)

Recorded growth for COc1cc(CC#N)c([N+](=O)[O-])cc1OC on NCI-H460 lung was 106% (inactive)

Recorded growth for O=C(O)Cc1ccc(Cl)cc1 on NCI-H460 lung was 107% (inactive)

Recorded growth for COc1cc(C(=O)O)c(O)c(C(C)(C)C)c1 on NCI-H460 lung was 105% (inactive)

Recorded growth for CCC12OC(COc3ccccc3)CN1CCN2c1ccccc1 (centres undefined) on NCI-H460 lung was 106% [100 µM] (inactive)

Recorded growth for CCOP(=O)(NC(c1ccccc1)c1ccccc1)OCC on NCI-H460 lung was 107% (inactive)

Recorded growth for O=C1C=C[C@H](O)[C@@]2(CO)O[C@@H]12 on NCI-H460 lung was 121% (inactive)
